Target: human ether-à-go-go-related gene (hERG) potassium channel (human, UniProt Q12809);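 note: peak tail current of the secondary pulse compared with the same well before compound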
Sequence (Q12809 whole entry, looked up): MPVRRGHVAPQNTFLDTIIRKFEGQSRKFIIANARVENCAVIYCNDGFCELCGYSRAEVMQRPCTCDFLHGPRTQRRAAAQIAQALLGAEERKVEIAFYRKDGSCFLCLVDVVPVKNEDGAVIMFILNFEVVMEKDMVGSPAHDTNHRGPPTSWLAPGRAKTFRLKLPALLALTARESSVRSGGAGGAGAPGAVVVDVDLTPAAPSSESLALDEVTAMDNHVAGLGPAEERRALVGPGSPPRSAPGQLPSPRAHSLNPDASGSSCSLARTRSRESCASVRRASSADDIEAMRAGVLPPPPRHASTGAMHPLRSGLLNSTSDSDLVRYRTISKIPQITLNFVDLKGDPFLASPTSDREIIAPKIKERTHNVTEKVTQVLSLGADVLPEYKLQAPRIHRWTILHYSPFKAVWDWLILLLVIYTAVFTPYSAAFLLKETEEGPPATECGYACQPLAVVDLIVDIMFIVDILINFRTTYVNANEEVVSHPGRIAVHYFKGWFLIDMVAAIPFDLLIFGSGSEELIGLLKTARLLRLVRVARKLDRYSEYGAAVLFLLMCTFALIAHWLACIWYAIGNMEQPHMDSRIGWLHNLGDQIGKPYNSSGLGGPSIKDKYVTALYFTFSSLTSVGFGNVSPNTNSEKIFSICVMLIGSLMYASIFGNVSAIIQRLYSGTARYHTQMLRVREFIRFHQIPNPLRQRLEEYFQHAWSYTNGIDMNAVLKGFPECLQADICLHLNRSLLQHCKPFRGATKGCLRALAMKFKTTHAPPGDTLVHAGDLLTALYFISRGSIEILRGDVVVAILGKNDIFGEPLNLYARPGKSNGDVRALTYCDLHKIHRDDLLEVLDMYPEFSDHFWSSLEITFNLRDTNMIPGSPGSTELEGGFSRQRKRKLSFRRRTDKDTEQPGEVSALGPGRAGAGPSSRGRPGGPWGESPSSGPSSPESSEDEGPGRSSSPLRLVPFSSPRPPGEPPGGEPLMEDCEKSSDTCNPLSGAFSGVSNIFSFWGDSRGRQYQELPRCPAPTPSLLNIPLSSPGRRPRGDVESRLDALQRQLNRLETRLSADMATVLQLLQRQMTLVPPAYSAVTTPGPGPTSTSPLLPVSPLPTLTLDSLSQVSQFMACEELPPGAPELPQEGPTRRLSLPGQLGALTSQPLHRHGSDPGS
Test: primary screen, population patch clamp on CHO cells stably expressing hERG; higher = less effect of the substance
The campaign covered roughly 310,000 compounds. About 14,000 (4.5%) showed an effect of 50% or more. Effects have a minus sign here. The list comes from a sample in which strong results are over-represented; it also holds close analogues and randomly drawn compounds.
Mark FALSE for hERG current change (%, negative = inhibition) at 10uM values under -30%, and TRUE for everything at or above.

> print(dat)
                                    molecule                               measured.on    cat
 1        Cc1oc(-c2ccccc2F)nc1CSCC(=O)NC1CC1  human ether-à-go-go-related gene (hERG) potassium channel (human, UniProt Q12809)   TRUE
 2  O=C(CSc1nc2ccccc2c(=O)n1CCC(=O)N1CCN(c2ccccc2)CC1)NCC1CCCO1 (centres unmarked)  human ether-à-go-go-related gene (hERG) potassium channel (human, UniProt Q12809)  FALSE
 3           CCCCCCN1C=CC=C/C1=C/C=C(C#N)C#N  human ether-à-go-go-related gene (hERG) potassium channel (human, UniProt Q12809)  FALSE
 4    CCCCCCN1C=CC(=C/C=C(\C#N)C(=O)OCC)C=C1  human ether-à-go-go-related gene (hERG) potassium channel (human, UniProt Q12809)   TRUE
 5    CCCCCCN1C=C/C(=C\C=C(C#N)C#N)c2ccccc21  human ether-à-go-go-related gene (hERG) potassium channel (human, UniProt Q12809)  FALSE
 6  O=C(CSc1nc2ccccc2c(=O)n1CC1CCCO1)N1CCN(c2ccccc2)CC1 (centres unmarked)  human ether-à-go-go-related gene (hERG) potassium channel (human, UniProt Q12809)  FALSE
 7              CCCN1C=CC(=CC=C(C#N)C#N)C=C1  human ether-à-go-go-related gene (hERG) potassium channel (human, UniProt Q12809)   TRUE
 8  O=C1CN(C(=O)CSc2nc3ccccc3c(=O)n2CC2CCCO2)c2ccccc2N1 (centres unmarked)  human ether-à-go-go-related gene (hERG) potassium channel (human, UniProt Q12809)  FALSE
 9            CCCCCN1C=CC=C/C1=C\C=C(C#N)C#N  human ether-à-go-go-related gene (hERG) potassium channel (human, UniProt Q12809)  FALSE
10           CCCCCCN1C=CC=C/C1=C\C=C(C#N)C#N  human ether-à-go-go-related gene (hERG) potassium channel (human, UniProt Q12809)  FALSE
11  CCOC(=O)Cn1c(CN2CCOCC2)nc2c1c(=O)[nH]c(=O)n2C  human ether-à-go-go-related gene (hERG) potassium channel (human, UniProt Q12809)   TRUE
